Assignment: determine reported growth inhibition for the given compounds.
experiment: NCI Yeast Anticancer Drug Screen. Data for the rad50 strain (AID 155);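 also: 0% = growth of vehicle-only cultures of the same strain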; details: S. cerevisiae rad50 strain growth inhibition; at 5.0 µM (retest, dose inferred, filed as 0.5); active compounds read high
The panel holds about 79,000 compounds, 15% with a hit somewhere; the sample as a whole holds those more often.
Answers are plain numbers, in %.

# example entries with known answers
| compound | metric | val |
| --- | --- | --- |
| O=C(c1ccc(O)cc1)c1ccccc1O | growth inhibition | 6 |
| O=c1oc(-c2ccccc2Br)ns1 | growth inhibition | 0 |
| CCOC(=O)c1c(Cl)nnc(-c2ccccc2)c1-c1ccccc1 | growth inhibition | 0 |
| CCCNCCCC(C)Nc1cc(OC)cc2c(C)ccnc12 (stereo not drawn) | growth inhibition | 17 |

# per-item lookup of growth inhibition; items listed below
1. CC12OC1C(=O)c1ccccc1C2=O (stereo not drawn)
2. O=C1C(=O)C2CC3(CC1N2Cc1ccccc1)OCCO3
3. OC(CCN1CCCCC1)(Cc1ccccc1)c1cccc(Cl)c1 (stereo not drawn)
4. O=C(Nc1ccccc1O)/C(Cl)=C/Cl
5. CN(C)/C(N)=N\c1nc2ccc(Cl)cc2s1
6. CN(C)c1ccc(C(=O)C2CCCC(C)(C)C2)cc1 (stereo not drawn)
7. Cc1cc(O)cc2c1c(=O)c1ccccc1n2C

// result
4
11
8
-153
-13
22
15

# per-item lookup of growth inhibition; items listed below
1. O=C(C[n+]1ccccc1Cl)c1ccc(F)cc1
2. CC(C)OC(=O)CCCCCC1CCCCC1

// result
1. -3
2. 6

* * *

assay: NCI Yeast Anticancer Drug Screen. Data for the cln2 rad14 strain (AID 165);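 also: 0% = growth equal to vehicle treated cultures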; details: S. cerevisiae cln2 rad14 strain, at 50.0 µM (retest, dose inferred, filed as 5.0)
This is part of a sample that, as a whole, favours compounds with a hit. Of some 79,000 tested, about 15% had one in any assay. Activity calls are given as the source filed them. Cut-off read from the data, not from the text of the source: active = growth inhibition above about 70%; inactive = the rest.
Classes to choose from: true (active), false (inactive)

| molecule | category |
| --- | --- |
| CSC1NNC2(C(=O)N1)c1ccccc1-c1ccccc12 (stereo unspecified) | true |

// query Which outcome did this test record for the molecule `Cc1cc2nc(CC(=O)c3ccc4ccccc4c3)c(=O)[nH]c2cc1C` ?
// result false

// query Now this one: Cc1[nH]c2c(C)cccc2c1C1Cc2ccccc2N1 (stereo unspecified)
// result true

// query Now this one: `CCCCC1=NCCc2c1cc1c([nH]c3ccccc31)c2C`
// result false

// query Now this one: `O=C(NNc1ncccn1)c1ccc(C(=O)NNc2ncccn2)cc1`
// result true

// query Now this one: `C[Si](C)(C)C1=C([Si](C)(C)C)C(Cl)(Cl)C1=O`
// result false

* * *

assay: NCI Yeast Anticancer Drug Screen. Data for the rad50 strain (AID 155);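 also: 0% = growth of vehicle-only cultures of the same strain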; settings: S. cerevisiae rad50 strain growth inhibition; at 50.0 µM (retest, dose inferred, filed as 5.0); active compounds read high
The panel holds about 79,000 compounds, 15% with a hit somewhere; the sample as a whole holds those more often.
Assignment: determine reported growth inhibition for the given compounds.
One number for each entry, in %.

# example entries with known answers
| compound | val |
| --- | --- |
| CCCCCNc1ccc2c(cc1=O)C(NC(C)=O)CCc1cc(OC)c(OC)c(OC)c1-2 (stereo not drawn) | 89 |
| CCCCCOC(=O)CSC#N | 99 |
| CCCCCCCCCCS(=O)(=O)Nc1ccc(C(=O)NN)cc1 | 83 |
| OCC1OC(NC(=S)NCSCCC(F)(F)C(F)(F)C(F)(F)C(F)(F)C(F)(F)C(F)(F)F)C(O)C(O)C1O (stereo not drawn) | -21 |
| O=C1CC(c2ccccc2)c2c(ccc3ccccc23)O1 (stereo not drawn) | 90 |
| O=C1c2cc(O)ccc2C(=O)c2c1ccc(O)c2O | 98 |
| CN(C)CCCNc1c(C#N)[n+]([O-])c2cc(Cl)ccc2[n+]1[O-] | 93 |
| O=[N+]([O-])c1cnc(F)c(Br)c1 | 99 |

# per-item lookup of growth inhibition; items listed below
1. OCC(O)C(O)C(O)C(O)c1cnn(-c2ccccc2)n1 (stereo not drawn)
2. COc1ccc2nc3cc(Cl)ccc3c(NCCC[N+](C)(C)CCCCCCCCCCCCCCCC[N+](C)(C)CCCNc3c4ccc(Cl)cc4nc4ccc(OC)cc34)c2c1
3. COc1cc(C2=NCCO2)cc(OC)c1OC
4. O=C1OS(=O)(=O)c2cc3c(cc21)C1C(C2C3C3(Cl)C(Cl)=C(Cl)C2(Cl)C3(Cl)Cl)C2(Cl)C(Cl)=C(Cl)C1(Cl)C2(Cl)Cl (stereo not drawn)

// result
1. -4
2. 99
3. -155
4. 58

# per-item lookup of growth inhibition; items listed below
1. O=C(Nc1ccc(Cl)cc1)Nc1cc(Cl)ccc1O
2. COC1=CC(=O)c2ncc(Cl)cc2C1=O
3. C1CCN(c2nc(N3CCOCC3)c3[nH]c(N4CCCCC4)nc3n2)CC1
4. COc1ccccc1OCC(COC(=O)Nc1ccc(C)cc1)OC(=O)Nc1ccc(C)cc1 (stereo not drawn)
5. O=C1C(=O)c2ccccc2C=C1Br
6. COc1ccc2cc(C(=O)CCCC(C)C(=O)O)ccc2c1 (stereo not drawn)

// result
1. 22
2. 97
3. 84
4. 2
5. 99
6. -9

# per-item lookup of growth inhibition; items listed below
1. NC1=NC2=C(CCCC2)C(c2cccs2)S1 (stereo not drawn)
2. Clc1ccc(CNc2ccc(Cl)c(Cl)c2)cc1
3. C=C(CC)C[C@@H]1C[C@]2(C(=O)OC)c3[nH]c4ccccc4c3CCN2C1=O
4. Cc1cc(Cl)ccc1Nc1sc(C(=O)c2cc3cc(Cl)ccc3o2)c(N)c1C#N

// result
82
95
94
53

The origin of these recorded values is PubChem BioAssay (NCI).
